System: HOP-62 complex spheroids with HUVEC/MSC, viability
Assay protocol: Anticancer human tumor HOP-62 cell line growth inhibition [RAS];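 also: spheroids exposed to agents for seven days before readout; 100% = DMSO vehicle control viability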
Condition summary: second compound 0.003 µM; first compound 0.0316 µM; active compounds read low
# Lookup of reported viability, T/C keyed by entry
Measure: viability, T/C (%)

Compound	System tested	Quantity unit	Endpoint result
NC1c2ccccc2OC12CCN(c1cnc3c(N4CCCc5ncccc54)n[nH]c3n1)CC2 (centres undefined) + CCn1c(-c2cc(N3CCN(C)CC3)cnc2C(C)OC)c2c3cc(ccc31)-c1csc(n1)CC(NC(=O)C1CC1C)C(=O)N1CCCC(N1)C(=O)OCC(C)(C)C2	HOP-62 complex spheroids with HUVEC/MSC, viability	%	72.5
CC(C)NCC(C(=O)N1CCN(c2ncnc3c2C(C)CC3O)CC1)c1ccc(Cl)cc1 (centres undefined) + CCn1c(-c2cccnc2C(C)OC)c2c3cc(ccc31)N1CCOC(CC(NC(=O)C(C(C)C)N(C)C(=O)C3(F)CCN(C(=O)C#CC(C)(C)N(C)C)CC3)C(=O)N3CCCC(N3)C(=O)OCC(C)(C)C2)C1	HOP-62 complex spheroids with HUVEC/MSC, viability	%	101
CC1(O)CCCC1n1c(=O)c(C(F)F)cc2cnc(NC3CCN(S(C)(=O)=O)CC3)nc21 (centres undefined) + CCn1c(-c2cc(N3CCN(C)CC3)cnc2C(C)OC)c2c3cc(ccc31)-c1csc(n1)CC(NC(=O)C1CC1C)C(=O)N1CCCC(N1)C(=O)OCC(C)(C)C2	HOP-62 complex spheroids with HUVEC/MSC, viability	%	87.4
CCN1CCN(Cc2ccc(Nc3ncc(F)c(-c4cc(F)c5nc(C)n(C(C)C)c5c4)n3)nc2)CC1 + CCn1c(-c2cc(N3CCN(C)CC3)cnc2C(C)OC)c2c3cc(ccc31)-c1csc(n1)CC(NC(=O)C1CC1C)C(=O)N1CCCC(N1)C(=O)OCC(C)(C)C2	HOP-62 complex spheroids with HUVEC/MSC, viability	%	78.2
